These data points were gathered from ChEMBL document CHEMBL4376850.

# target_of_assay: Cholinesterase (Equus caballus, UniProt P81908)
# Sequence (P81908 whole entry): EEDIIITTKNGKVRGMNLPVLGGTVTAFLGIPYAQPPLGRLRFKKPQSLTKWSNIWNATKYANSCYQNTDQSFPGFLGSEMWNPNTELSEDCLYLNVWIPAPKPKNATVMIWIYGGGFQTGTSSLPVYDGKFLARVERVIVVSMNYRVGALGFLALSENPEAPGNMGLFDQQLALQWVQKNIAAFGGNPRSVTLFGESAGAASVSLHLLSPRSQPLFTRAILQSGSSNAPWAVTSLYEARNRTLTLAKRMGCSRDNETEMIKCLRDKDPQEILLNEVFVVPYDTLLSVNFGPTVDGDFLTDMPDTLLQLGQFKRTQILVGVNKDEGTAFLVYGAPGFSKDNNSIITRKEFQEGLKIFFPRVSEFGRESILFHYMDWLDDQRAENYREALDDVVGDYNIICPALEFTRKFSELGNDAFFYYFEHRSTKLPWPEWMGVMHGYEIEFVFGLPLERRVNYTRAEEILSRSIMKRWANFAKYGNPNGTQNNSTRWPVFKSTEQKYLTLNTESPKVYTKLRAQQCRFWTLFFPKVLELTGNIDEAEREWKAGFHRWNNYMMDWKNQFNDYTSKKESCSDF
# experiment_description: Inhibition of equine BuChE
measure_name: IC50 (µM)
Field format: number, assumed µM, no unit text.

# input molecule: Cc1c(OCc2ccccc2)cccc1N1CCN(CC(=O)NC2CCN(Cc3ccccc3)C2)CC1 (stereo unspecified) ; wanted: its IC50
76

###

# target_of_assay: Amyloid-beta precursor protein (Homo sapiens)
# test_settings: at 10 µM
# Description: Inhibition of amyloid beta (1 to 42) (unknown origin) aggregation at 10 uM expressed in Escherichia coli BL21 (DE3) incubated for 24 hrs by thioflavin T-based fluorometric assay relative to control
measure_name: inhibition
The reply should consist of the numeric value with the unit placed after it.

The examples below pair each entry with its known result.
>  <compound>
O=C(CN1CCN(Cc2ccccc2)CC1)NC1CCN(Cc2ccccc2)C1 (stereo unspecified)

>  <target_of_assay>
Amyloid-beta precursor protein (Homo sapiens)

>  <inhibition>
37.4%

$$$$
>  <compound>
c1ccc(CN2CCC(NCCN3CCC(C(c4ccccc4)c4ccccc4)CC3)C2)cc1 (stereo unspecified)

>  <target_of_assay>
Amyloid-beta precursor protein (Homo sapiens)

>  <inhibition>
31.7%

$$$$

# input compound: O=C(CN1CCC(CCc2ccccc2)CC1)NC1CCN(Cc2ccccc2)C1 (stereo unspecified) ; wanted: its inhibition
48.3%

Can you handle O=C(CN1CCN(CCc2ccccc2)CC1)NC1CCN(Cc2ccccc2)C1 (stereo unspecified) next?
15.2%

Can you handle c1ccc(CN2CCC(NCCN3CCC(c4ccccc4)CC3)C2)cc1 (stereo unspecified) next?
37.4%

Can you handle O=C(CCN1CCC(CCc2ccccc2)CC1)NC1CCN(Cc2ccccc2)C1 (stereo unspecified) next?
47.8%

Can you handle c1ccc(CCC2CCN(CCNC3CCN(Cc4ccccc4)C3)CC2)cc1 (stereo unspecified) next?
41%

Can you handle O=C(CN1CCC(c2ccccc2)CC1)NC1CCN(Cc2ccccc2)C1 (stereo unspecified) next?
43.7%

Can you handle c1ccc(CCC2CCN(CCCNC3CCN(Cc4ccccc4)C3)CC2)cc1 (stereo unspecified) next?
36.3%

Can you handle c1ccc(CN2CCC(NCCN3CCN(C(c4ccccc4)c4ccccc4)CC3)C2)cc1 (stereo unspecified) next?
31.6%

Can you handle c1ccc(CC2CCN(CCNC3CCN(Cc4ccccc4)C3)CC2)cc1 (stereo unspecified) next?
36.6%

Can you handle c1ccc(CN2CCN(CCNC3CCN(Cc4ccccc4)C3)CC2)cc1 (stereo unspecified) next?
37.9%

Can you handle O=C(CN1CCN(c2ccccc2)CC1)NC1CCN(Cc2ccccc2)C1 (stereo unspecified) next?
34.5%

###

# target_of_assay: Beta-secretase 1 (Homo sapiens, UniProt P56817)
# Sequence (P56817 whole entry): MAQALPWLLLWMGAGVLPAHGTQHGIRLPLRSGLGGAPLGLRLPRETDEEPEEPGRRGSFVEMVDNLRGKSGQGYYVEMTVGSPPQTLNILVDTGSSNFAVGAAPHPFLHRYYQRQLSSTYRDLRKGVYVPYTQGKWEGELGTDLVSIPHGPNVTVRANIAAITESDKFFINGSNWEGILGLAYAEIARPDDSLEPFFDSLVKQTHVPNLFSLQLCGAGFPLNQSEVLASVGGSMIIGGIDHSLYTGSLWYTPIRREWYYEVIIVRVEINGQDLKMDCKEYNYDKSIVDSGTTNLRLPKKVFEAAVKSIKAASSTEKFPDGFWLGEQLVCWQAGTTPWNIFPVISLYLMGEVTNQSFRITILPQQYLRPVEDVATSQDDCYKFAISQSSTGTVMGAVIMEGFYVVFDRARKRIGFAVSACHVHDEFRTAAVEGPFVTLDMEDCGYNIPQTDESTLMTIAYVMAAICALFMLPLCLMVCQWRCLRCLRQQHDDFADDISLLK
# test_settings: 50 uM
measure_name: inhibition (%)
Field format: number, assumed %, no unit text.

The examples below pair each entry with its known result.
>  <molecule>
c1ccc(CN2CCC(NCCN3CCC(c4ccccc4)CC3)C2)cc1 (centres undefined)

>  <target_of_assay>
Beta-secretase 1 (Homo sapiens, UniProt P56817)

>  <inhibition [%]>
11.8

$$$$
>  <molecule>
c1ccc(CN2CCC(NCCN3CCCC(c4ccccc4)C3)C2)cc1 (centres undefined)

>  <target_of_assay>
Beta-secretase 1 (Homo sapiens, UniProt P56817)

>  <inhibition [%]>
25

$$$$
>  <molecule>
O=C(CN1CCC(Cc2ccccc2)CC1)NC1CCN(Cc2ccccc2)C1 (centres undefined)

>  <target_of_assay>
Beta-secretase 1 (Homo sapiens, UniProt P56817)

>  <inhibition [%]>
55.6

$$$$
>  <molecule>
O=C(CN1CCN(CCc2ccccc2)CC1)NC1CCN(Cc2ccccc2)C1 (centres undefined)

>  <target_of_assay>
Beta-secretase 1 (Homo sapiens, UniProt P56817)

>  <inhibition [%]>
48.6

$$$$
>  <molecule>
c1ccc(CCC2CCCN(CCNC3CCN(Cc4ccccc4)C3)C2)cc1 (centres undefined)

>  <target_of_assay>
Beta-secretase 1 (Homo sapiens, UniProt P56817)

>  <inhibition [%]>
42.6

$$$$
>  <molecule>
c1ccc(CN2CCC(NCCN3CCN(c4ccccc4)CC3)C2)cc1 (centres undefined)

>  <target_of_assay>
Beta-secretase 1 (Homo sapiens, UniProt P56817)

>  <inhibition [%]>
40.7

$$$$

What measured inhibition is associated with c1ccc(CN2CCC(NCCN3CCN(C(c4ccccc4)c4ccccc4)CC3)C2)cc1 (centres undefined) on Beta-secretase 1 (Homo sapiens, UniProt P56817)?
34.2

Can you handle O=C(CN1CCC(CCc2ccccc2)CC1)NC1CCN(Cc2ccccc2)C1 (centres undefined) next?
50.5

Can you handle c1ccc(CC2CCCN(CCNC3CCN(Cc4ccccc4)C3)C2)cc1 (centres undefined) next?
24.1

Can you handle c1ccc(CCC2CCN(CCNC3CCN(Cc4ccccc4)C3)CC2)cc1 (centres undefined) next?
31

Can you handle O=C(CN1CCCC(c2ccccc2)C1)NC1CCN(Cc2ccccc2)C1 (centres undefined) next?
14.7

Can you handle O=C(CN1CCC(c2ccccc2)CC1)NC1CCN(Cc2ccccc2)C1 (centres undefined) next?
48.4

Can you handle c1ccc(CCC2CCN(CCCNC3CCN(Cc4ccccc4)C3)CC2)cc1 (centres undefined) next?
17

Can you handle c1ccc(CN2CCC(NCCN3CCC(C(c4ccccc4)c4ccccc4)CC3)C2)cc1 (centres undefined) next?
54.3

Can you handle O=C(CN1CCN(c2ccccc2)CC1)NC1CCN(Cc2ccccc2)C1 (centres undefined) next?
43.7

Can you handle O=C(CN1CCCC(CCc2ccccc2)C1)NC1CCN(Cc2ccccc2)C1 (centres undefined) next?
28.8

Can you handle c1ccc(CN2CCN(CCNC3CCN(Cc4ccccc4)C3)CC2)cc1 (centres undefined) next?
13.6
